Overview of reported viability, T/C across a group of molecules:
System: 292921-168-R-J2-PDC KRAS tumor spheroid viability;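 further: drug exposure lasted seven days after spheroids formed for three days; percent of DMSO vehicle control viability which is 100%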
Assay: Anticancer human tumor 292921-168-R-J2-PDC patient-derived pancreatic carcinoma cell line growth inhibition [KRAS2]
Details: second compound 3.16 µM; first compound 10 µM; stronger effect = lower value; spheroids with HUVEC and MSC
From the text: Multicellular complex tumor spheroid response to RAS pathway inhibitors in combination with a targeted agents in patient-derived cell lines with oncogenic KRAS variants from multiple cancer types A high-throughput screen of multi-cell type tumor spheroids was designed to identify active combinations of targeted small molecules and KRAS pathway inhibitors. […] Compounds. […] If the clinical Cmax for an agent had not been determined, the highest concentration tested was 10 microM. […]
Quick note: give the figure in %, leave out the unit.

As a guide, the following entries are already answered.
INSERT INTO measurements (molecule, recordedresult) VALUES
  ('CC1(C)CCC(CN2CCN(c3ccc(C(=O)NS(=O)(=O)c4ccc(NCC5CCOCC5)c([N+](=O)[O-])c4)c(Oc4cnc5[nH]ccc5c4)c3)CC2)=C(c2ccc(Cl)cc2)C1 + C=CC(=O)N1CCN(c2nc(OCC3CCCN3C)nc3c2CCN(c2cccc4cccc(C)c24)C3)CC1CC#N', 0.26),
  ('O=C(c1cc(Cc2n[nH]c(=O)c3ccccc23)ccc1F)N1CCN(C(=O)C2CC2)CC1 + CNCc1ccccc1-c1csc(C(C)Nc2nc(C)nc3cc(OC)c(OC)cc23)c1', 0.17);

API: the following record is the query input.
For the molecule COc1cc2nccc(Oc3ccc(NC(=O)C4(C(=O)Nc5ccc(F)cc5)CC4)cc3)c2cc1OC + CC1OCC2(CCN(c3cnc(Sc4ccnc(N)c4Cl)c(N)n3)CC2)C1N , what viability, T/C is on record?
12
